Entry source: PubChem BioAssay (NCATS)

Experiment: Primary qHTS for inhibitors of nuclear receptor binding SET domain protein 2 (NSD2) in an RCH-ACV wild type WT cells (2C) (AID 1645877); further: nearly all actives have a fitted effect of over 70% in size
Details: RCH-ACV (leukaemia line) NSD2 WT (2C) viability, CellTiter-Glo, 72 h; series mostly up to 44.9 µM
Inconclusive results are not listed. The source made the active and inactive calls. The call rests on the fitted dose curve; in most records, active means well fitted inhibition curve with a large enough effect; inconclusive means small, poorly fitted or top-dose-only effect; inactive means no such curve, though single readings can be large or run the other way.
Pick one: True for active, False for inactive

The examples below pair each entry with its known result.
| compound | label value |
| --- | --- |
| CCCC(Nc1nc(-c2ccc(NC(=O)NCC)c(OC)c2)ncc1C)c1cccnc1 (stereo not drawn) | True |
| N#Cc1cc(CN2CCC(Nc3ncnc4sc(Cl)cc34)CC2)ccc1F | True |
| CC(C)=CCC/C(C)=C/COCC1OC(n2ccc(=O)[nH]c2=O)C(O)C1O (stereo not drawn) | True |

Now consider the entry below.
Any idea what this test logged for COc1cc(CN(CCN)C(=O)c2cccs2)ccc1OCc1ccccc1 ? True

* * *

Biological target: Cytochrome P450 2D6 (Homo sapiens) (UniProt P10635)
Sequence (P10635 whole entry, looked up): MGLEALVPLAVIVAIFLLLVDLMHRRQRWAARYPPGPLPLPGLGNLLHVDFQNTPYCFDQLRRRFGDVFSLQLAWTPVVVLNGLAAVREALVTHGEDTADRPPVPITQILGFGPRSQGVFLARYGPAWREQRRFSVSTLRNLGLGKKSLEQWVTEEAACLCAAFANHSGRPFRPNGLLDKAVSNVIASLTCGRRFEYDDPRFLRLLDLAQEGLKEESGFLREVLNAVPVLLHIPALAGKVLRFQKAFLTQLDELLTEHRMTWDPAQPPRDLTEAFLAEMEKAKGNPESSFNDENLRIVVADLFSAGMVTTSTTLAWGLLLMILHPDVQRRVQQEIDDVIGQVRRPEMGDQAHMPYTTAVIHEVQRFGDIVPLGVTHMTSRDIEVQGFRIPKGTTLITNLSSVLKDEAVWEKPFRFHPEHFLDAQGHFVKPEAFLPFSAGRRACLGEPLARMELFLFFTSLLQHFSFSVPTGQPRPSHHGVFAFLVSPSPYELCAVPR
Test: Cytochrome P450 family 2 subfamily D member 6 (CYP2D6) small molecule antagonists: luciferase biochemical (cell-free) qHTS assay (AID 1645840); further: nearly all actives have a fitted effect of over 55% in size
Conditions: P450-Glo CYP2D6 enzyme, luciferin luminescence, 1 h; series mostly up to 57.4 µM
Records with an inconclusive call do not appear. Calls of active or inactive are those of the source. Calls follow the shape of the dose curve; as a rule, active = well fitted inhibition curve with a large enough effect in the repeat runs; inconclusive = weak or mixed curves; inactive = flat fitted curve, though single readings scatter.
Pick one: active, inactive

The examples below pair each entry with its known result.
| molecule | label value |
| --- | --- |
| C=CC(=O)N1CCN(C(=O)CNc2cc(-c3ccccc3Cl)c(Cl)cc2OC)CC1 | active |
| Cn1cc(-c2cnn3c(N)c(Br)c([C@@H]4CCCNC4)nc23)cn1 | active |
| CCNC1(C(N)=O)CCN(c2ncnc3c2nc(-c2ccccc2Cl)n3-c2ccc(Cl)cc2)CC1 | active |
| N#Cc1cc(CN2CCC(Nc3ncnc4sc(Cl)cc34)CC2)ccc1F | active |
| COc1ccc(CN2CCN(C(=O)CCNC(=O)c3ccc(C(C)(C)C)cc3)CC2)cc1 | active |
| COc1ccc([C@H](Cc2ccncc2)c2ccccc2)cc1OC1CCCC1 | active |
| CN(C)C(=O)Nc1cc(-c2ccccc2)ccc1N(C)C | inactive |
| O=C(Nc1ccccc1Br)NC1CCN(c2ccc(C(F)(F)F)cn2)C1 (stereo not given) | active |

Now consider the entry below.
Any idea what this test logged for COc1cc(N2CCC(N)CC2)ccc1Nc1ncc(Cl)c(-c2c[nH]c3ccccc23)n1 ? active

* * *

Molecular target: Nicotinamide N-methyltransferase (Homo sapiens) (UniProt P40261)
Sequence (P40261 whole entry, looked up): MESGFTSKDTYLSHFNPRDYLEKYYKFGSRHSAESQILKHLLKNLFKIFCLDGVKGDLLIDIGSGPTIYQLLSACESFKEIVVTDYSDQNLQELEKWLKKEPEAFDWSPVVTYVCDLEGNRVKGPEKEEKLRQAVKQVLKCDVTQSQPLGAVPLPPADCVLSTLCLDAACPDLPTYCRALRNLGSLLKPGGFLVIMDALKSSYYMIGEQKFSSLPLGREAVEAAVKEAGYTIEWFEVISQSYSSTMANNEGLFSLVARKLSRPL
Assay: Confirmatory Screen for Target Class Profiling of Small Molecule Inhibitors of Methyltransferases (AID 1745852)
Conditions: MTase-Glo luminescence, SAH detection, recombinant enzyme; measured here: NNMT max response; stronger effect = lower value
parameter: activity (%)
Record the value in %, omitting the unit from your answer.

| smiles data | parameter | unit spec | experimental result |
| --- | --- | --- | --- |
| O=C(c1ccccc1)c1c(O)cc(O)cc1O[C@@H]1O[C@H](CO)[C@@H](O)[C@H](O)[C@H]1O | activity | % | -5.29 |
| C=CC(=O)Nc1ccc(CN2C(=O)N(c3cc(OC)cc(OC)c3)Cc3cnc(Nc4ccc(N5CCN(C)CC5)cc4)nc32)cc1 | activity | % | -1.46 |
| CN1CCN(Cc2ccc(NC(=O)Cc3ccc(Oc4cc(NC(=O)C5CC5)ncn4)cc3)cc2C(F)(F)F)CC1 | activity | % | -29.5 |
| Cc1[nH]c2ccccc2c1CCNCc1ccc(/C=C/C(=O)NO)cc1 | activity | % | -6 |

Entry CN(C)c1ccc(NC(=O)NS(=O)(=O)c2ccc(Cl)cc2)cc1 has what activity? -25
